system: NCI-H1734; test: relative viability (nuclei count vs DMSO), 5 days (fraction); higher = more cells survive; conditions: first compound 0.4 µM
test readout: relative viability
Output spec: single numeric token, no unit.

Recorded relative viability, per entry:
| compound | target desc | test readout | assay result |
| --- | --- | --- | --- |
| COc1cc(N2CCC(C(N)=O)CC2)ccc1Nc1nc(N)c(Cl)c(Nc2ccccc2S(=O)(=O)C(C)C)n1 [HG-5-88-01] + CC(=O)c1c(C)c2cnc(Nc3ccc(N4CCNCC4)cn3)nc2n(C2CCCC2)c1=O [Palbociclib] (partner 0.5 µM) | NCI-H1734 | relative viability | 0.326 |
| C[C@@H]1CN(CC(=O)Nc2ccc3c(c2)Cc2cccc(-c4cc(=O)cc(N5CCOCC5)o4)c2S3)C[C@H](C)O1 + CC(=O)Nc1cccc(-n2c(=O)n(C3CC3)c(=O)c3c(Nc4ccc(I)cc4F)n(C)c(=O)c(C)c32)c1 [Trametinib] (partner 0.02 µM) | NCI-H1734 | relative viability | 0.632 |
| C[C@@H]1CN(CC(=O)Nc2ccc3c(c2)Cc2cccc(-c4cc(=O)cc(N5CCOCC5)o4)c2S3)C[C@H](C)O1 + COc1cccc2cc(-c3nc([C@H]4CC[C@H](C(=O)O)CC4)n4ncnc(N)c34)[nH]c12 [OSI-027] (partner 0.5 µM) | NCI-H1734 | relative viability | 0.48 |

Could you share what relative viability was measured for COc1cc(N2CCC(C(N)=O)CC2)ccc1Nc1nc(N)c(Cl)c(Nc2ccccc2S(=O)(=O)C(C)C)n1 [HG-5-88-01] + Cc1nc(NC(=O)N2CCC[C@H]2C(N)=O)sc1-c1ccnc(C(C)(C)C(F)(F)F)c1 [Alpelisib] (partner 2 µM) , tested on NCI-H1734? 0.727
